Where do the numbers come from? From patent US20230145342A1.

System: Pseudomonas aeruginosa 5550
Assay: Resistance profile of strain (Table 3)
Format: cell-based
Conditions: strain 5550

COMPOUND: C[C@@H](O)[C@H]1C(=O)N2C(C(=O)O)=C(S[C@@H]3CN[C@H](C(=O)N(C)C)C3)[C@H](C)[C@H]12
STUDY_SYSTEM: Pseudomonas aeruginosa 5550
Antibiotic resistance (category): resistant

COMPOUND: CC(C)(O/N=C(\C(=O)N[C@@H]1C(=O)N2C(C(=O)[O-])=C(C[n+]3ccccc3)CS[C@H]12)c1csc(N)n1)C(=O)O
STUDY_SYSTEM: Pseudomonas aeruginosa 5550
Antibiotic resistance (category): resistant

COMPOUND: CO/N=C(\C(=O)N[C@@H]1C(=O)N2C(C(=O)[O-])=C(C[N+]3(C)CCCC3)CS[C@H]12)c1csc(N)n1 [cefepime, Cefepime]
STUDY_SYSTEM: Pseudomonas aeruginosa 5550
Antibiotic resistance (category): Intermediate susceptible

COMPOUND: NCC[C@H](O)C(=O)N[C@@H]1C[C@H](N)[C@@H](O[C@H]2O[C@H](CN)[C@@H](O)[C@H](O)[C@H]2O)[C@H](O)[C@H]1O[C@H]1O[C@H](CO)[C@@H](O)[C@H](N)[C@H]1O
STUDY_SYSTEM: Pseudomonas aeruginosa 5550
Antibiotic resistance (category): Intermediate susceptible

---

Test system: Pseudomonas aeruginosa 5542
Assay: Resistance profile of strain (Table 3)
Assay type: cell-based
Conditions: strain 5542 P. aeruginosa
OBSERVABLE: Antibiotic resistance (category)

MOLECULE: C[C@@H](O)[C@H]1C(=O)N2C(C(=O)O)=C(S[C@@H]3CN[C@H](C(=O)N(C)C)C3)[C@H](C)[C@H]12
DATA_VALUE: resistant
//
MOLECULE: CO/N=C(\C(=O)N[C@@H]1C(=O)N2C(C(=O)[O-])=C(C[N+]3(C)CCCC3)CS[C@H]12)c1csc(N)n1 [cefepime, Cefepime]
DATA_VALUE: resistant
//
MOLECULE: CC(C)(O/N=C(\C(=O)N[C@@H]1C(=O)N2C(C(=O)[O-])=C(C[n+]3ccccc3)CS[C@H]12)c1csc(N)n1)C(=O)O
DATA_VALUE: resistant

---

Tested on: Pseudomonas aeruginosa 5550
Test: Resistance profile of strain (Table 3)
Type: cell-based
Settings: strain 5550
Source text: The effect of P[5]a on the penetration and efficacy of coadministered antibiotics Amikacin (a), Cefepime (b), Ceftazidime (c) and Meropenem (d) in MDR resistant clinical isolates were studied.
Give Antibiotic resistance (value given with the category, MIC) for every item shown.
Answer in µg, number only, no unit symbol.

Antibiotic resistance (value given with the category, MIC) for CC(C)(O/N=C(\C(=O)N[C@@H]1C(=O)N2C(C(=O)[O-])=C(C[n+]3ccccc3)CS[C@H]12)c1csc(N)n1)C(=O)O [ceftazidime, Ceftazidime] is 16

Antibiotic resistance (value given with the category, MIC) for NCC[C@H](O)C(=O)N[C@@H]1C[C@H](N)[C@@H](O[C@H]2O[C@H](CN)[C@@H](O)[C@H](O)[C@H]2O)[C@H](O)[C@H]1O[C@H]1O[C@H](CO)[C@@H](O)[C@H](N)[C@H]1O [amikacin, Amikacin] is 32

Antibiotic resistance (value given with the category, MIC) for C[C@@H](O)[C@H]1C(=O)N2C(C(=O)O)=C(S[C@@H]3CN[C@H](C(=O)N(C)C)C3)[C@H](C)[C@H]12 [meropenem, Meropenem] is 8

Antibiotic resistance (value given with the category, MIC) for CO/N=C(\C(=O)N[C@@H]1C(=O)N2C(C(=O)[O-])=C(C[N+]3(C)CCCC3)CS[C@H]12)c1csc(N)n1 [cefepime, Cefepime] is 16
